Tested Target: STING (Homo sapiens, UniProt Q86WV6, G230A/H232R/R293Q/R71H)
Sequence (Q86WV6 whole entry R71H/G230A/H232R/R293Q): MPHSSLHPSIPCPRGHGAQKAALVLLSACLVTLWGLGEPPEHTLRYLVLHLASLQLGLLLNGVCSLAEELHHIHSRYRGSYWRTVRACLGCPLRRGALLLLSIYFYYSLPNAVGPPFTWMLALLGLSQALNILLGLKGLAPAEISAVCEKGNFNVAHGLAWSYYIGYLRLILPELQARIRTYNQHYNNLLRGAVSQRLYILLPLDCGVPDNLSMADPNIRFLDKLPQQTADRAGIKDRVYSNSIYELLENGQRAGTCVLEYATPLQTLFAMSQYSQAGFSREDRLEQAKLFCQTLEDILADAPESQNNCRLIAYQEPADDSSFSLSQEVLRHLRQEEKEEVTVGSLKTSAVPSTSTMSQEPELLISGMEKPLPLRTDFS
Measurement Description: STING reporter assay in THP1-Dual KO-IFNAR2 cells (2′3′cGAMP stimulation, luciferase reporter)
Experimental Parameters: 15 μM 2′3′cGAMP stimulation, 24 h, read-out: Pharmaron, THP1_IFNAR2 STING 24 h Luci Normalized: GeoMean EC50
Here the recorded EC50 is given for each entry.

# count of solved cases: 6
# Smiles String, Observation Type, Reading
rows = [
    ("CC(=O)Nc1c[nH]c2ccc(COC[C@@H]3[C@H]4CN(CC(F)(F)F)C[C@@H]34)cc12", "EC50", "1000 to 5000 nM"),
    ("CC(=O)Nc1c[nH]c2ccc(OCCc3cnn4c3CCCC4)cc12", "EC50", "5000 to 100000 nM"),
    ("O=C(Nc1c[nH]c2ccc(O[C@H]3C[C@@H](c4ccc(C(F)(F)F)cc4)C3)cc12)C1CC(F)(F)C1", "EC50", "40 to 200 nM"),
    ("C[C@H]1C[C@H](C(=O)Nc2c[nH]c3ccc(O[C@H]4C[C@@H](c5ccc(C(F)(F)F)cc5)C4)cc23)C1", "EC50", "40 to 200 nM"),
    ("O=C(Nc1c[nH]c2ccc(OCCc3ccc(C(F)(F)F)cc3)cc12)C1(F)CC1", "EC50", "200 to 1000 nM"),
    ("CC(=O)Nc1c[nH]c2ccc(CCC[C@@H]3C[C@@H]4CN(CC(F)(F)F)C[C@@H]4C3)cc12", "EC50", "1000 to 5000 nM"),
]

// moving on: another record for EC50
So, CC(=O)Nc1c[nH]c2ccc(CC[C@@H]3C[C@@H]4CN(CC(F)(F)F)C[C@@H]4C3)cc12 ? Its EC50 was 200 to 1000 nM

----------
Tested Target: STING (Homo sapiens, UniProt Q86WV6, G230A/H232R/R293Q/R71H)
Measurement Description: STING reporter assay in THP1-Dual KO-IFNAR2 cells (2′3′cGAMP stimulation, luciferase reporter)
Experimental Parameters: 15 μM 2′3′cGAMP stimulation, 24 h, read-out: Pharmaron, THP1_IFNAR2 STING 24 h Luci Normalized: GeoMean EC50
Method: STING pathway activation by the compounds described herein was measured using THP1-Dual™ cells (KO-IFNAR2). […] 2 mL of solution A and 2 ml Solution B was mixed and incubated for 20 min at room temperature (RT). […] Luciferase reporter activity was then measured. EC50 values were calculated by using standard methods known in the art. […] Luciferase reporter activity was then measured. EC50 values were calculated by using standard methods known in the art.
pEC50: −log10 of the molar value.
Here the recorded pEC50 is given for each entry.

So, CO[C@H]1C[C@H](C(=O)Nc2c[nH]c3ccc(OCCc4ccc(C(F)(F)F)nc4)cc23)C1 ? Its pEC50 was 6.00 to 6.70

----------
Tested Target: STING (Homo sapiens, UniProt Q86WV6, G230A/H232R/R293Q/R71H)
Measurement Description: STING reporter assay in THP1-Dual KO-IFNAR2 cells (2′3′cGAMP stimulation, luciferase reporter)
Format: cell-based
Experimental Parameters: 15 μM 2′3′cGAMP stimulation, 24 h, read-out: Pharmaron, THP1_IFNAR2 STING 24 h Luci Normalized: GeoMean EC50
Here the recorded EC50 is given for each entry.

# Smiles String, Tested Target, EC50
measured = [
    ("CC(=O)Nc1c[nH]c2ccc(OCC[C@@H]3C[C@@H]4CN(C)C[C@@H]4C3)cc12", "STING (Homo sapiens, UniProt Q86WV6, G230A/H232R/R293Q/R71H)", "5 to 100 µM"),
    ("O=C(Nc1c[nH]c2ccc(OCCc3ccc(C(F)(F)F)cc3)cc12)[C@H]1C[C@@H](O)C1", "STING (Homo sapiens, UniProt Q86WV6, G230A/H232R/R293Q/R71H)", "0.2 to 1 µM"),
    ("O=C(Nc1c[nH]c2ccc(O[C@H]3C[C@@H](c4ccc(C(F)(F)F)cc4)C3)cc12)C1CNC1", "STING (Homo sapiens, UniProt Q86WV6, G230A/H232R/R293Q/R71H)", "5 to 100 µM"),
]

// moving on: another record for EC50
CC(=O)Nc1c[nH]c2ccc(CCOc3ccc(C(F)(F)F)cc3)nc12 on STING (Homo sapiens, UniProt Q86WV6, G230A/H232R/R293Q/R71H) gives EC50 = 1 to 5 µM
